Record form. Attribute: melting point. Fill in for each entry.

Look up and state reported melting point for "CCCCCCCCCCCCCC(=O)NCCCSc1ccncc1" 80 to 81 °C

Look up and state reported melting point for "O=S1(=O)N(CCCN2CC=C(c3ccccc3)CC2)c2cccc3c2N1CCC3" 120 °C

Look up and state reported melting point for "O=S(=O)(/C=C/c1ccc(F)cc1)CS(=O)(=O)/C=C/c1ccc(F)cc1" 183 to 185 °C

Look up and state reported melting point for "CC/C=C(\C)CNc1cccc(-c2ccnc3c(C(=O)c4cccs4)cnn23)c1" 132 to 133 °C

Look up and state reported melting point for "CCCc1nn(C)c2c(=O)n(CCCNc3ccc(OC(C)(C)C(=O)O)cc3)c(C)nc12" 104 to 106 °C

Look up and state reported melting point for CCC1NC(c2cc(Cl)nc(Cl)c2)=NC(=O)C1(CC)C(=O)OC (stereo unspecified) 202 to 203 °C

Look up and state reported melting point for CC(C)C(=O)c1[nH]c(C(CC2CCCC2)c2ccc(S(C)(=O)=O)cc2)nc1F (stereo unspecified) 161 to 162 °C

Look up and state reported melting point for "c1c2c(cc3c1OCO3)CCNCC2" 82 to 84 °C

Look up and state reported melting point for CCCCCCCCCCCCCCCCCNC(=O)O[C@@H]1CCCO[C@H]1COc1cc(CCCCO)on1 (relative stereo) 86 to 87 °C

Look up and state reported melting point for "O=C(OCc1ccccc1)N1CCC(O)(c2ccc(C(F)(F)F)cc2)CC1" 102 °C

Look up and state reported melting point for "CCn1cc(CC(=O)O)c(OCCCc2cn(-c3ccc(C(F)(F)F)cn3)nc2C(C)C)n1" 99 to 100 °C

Look up and state reported melting point for "C[Si](C)(C)OC(Cn1cncn1)(Cn1cncn1)c1ccc(F)cc1F" 69 to 71 °C

Look up and state reported melting point for "CNc1nc(Nc2ccccc2C)c2cccc(OC)c2n1" 190 to 192 °C

Look up and state reported melting point for "N#CC(=NO)c1cccc(Br)c1" 91 to 93 °C

Look up and state reported melting point for "COc1ccc(C2(c3ccc(OC)cc3)C(Cl)(Cl)C23CCCCC3)cc1" 121 to 122 °C

Look up and state reported melting point for "Nc1cccc(C(=O)Nc2ccc(-c3c[nH]c(=O)cn3)cc2)c1" > 250 °C

Look up and state reported melting point for "COCc1ccc(O)cc1" 79 to 80 °C

Look up and state reported melting point for "CCC(CC)c1ccc(Cl)c2nc3n(c12)CCN3c1ccc(Cl)cc1C(N)=O" > 300 °C

Look up and state reported melting point for "CCOc1ccc(-c2nc(CCl)cs2)cc1OCC" 81.5 to 82.3 °C

Look up and state reported melting point for "CCCOC(=O)Nc1cnc(OCCC)c(-c2nc3c(CCC)nn(C)c3c(=O)[nH]2)c1" 210 to 211 °C

Look up and state reported melting point for "Oc1ccc(-c2nc(-c3ccc(Sc4ccccc4)cc3)nc(-c3ccc(O)cc3O)n2)c(O)c1" > 250 °C

Look up and state reported melting point for "Oc1ccc2cc(-c3cnc(-c4ccccc4)o3)ccc2c1" 235 to 238 °C

Look up and state reported melting point for O=C1CC(c2cccc3ccccc23)c2ccc(O)cc2O1 (stereo unspecified) 193 to 196 °C

Look up and state reported melting point for "Cc1ccc(CC(=S)N[C@@H](Cc2ccccc2)C(=O)O)cc1" 92 to 93 °C

Look up and state reported melting point for "Cc1nc(C)c(-c2ccnc(Nc3ccc(N4CCCC4)cc3)n2)s1" 192 to 193 °C

Look up and state reported melting point for "COc1ccc(S)c(C(=O)O)c1" 173 to 178 °C

Look up and state reported melting point for "O=c1[nH]c2c(c3nc(-c4ccccc4Cl)nn13)CN(Cc1ccccc1)CC2" 295 to 296 °C

Look up and state reported melting point for "O=C(O)CCCc1ccc(-c2cccc(Cl)c2Cl)cc1" 70 to 71 °C

Look up and state reported melting point for "CCCCCCCCCCCCNC(=S)NCCCC" 49 to 55 °C

Look up and state reported melting point for "CCCOC(=O)c1cc(C(=O)Nc2ccccc2O)cc(Br)c1O" 198 to 200 °C

Look up and state reported melting point for CC(=O)Nc1ccc(OC2CCC3C4CCC5N(C)C(=O)CCC5(C)C4CCC23C)cc1 (stereo unspecified) 340 °C

Look up and state reported melting point for "COC(=O)CN(CCNC(=O)OC(C)(C)C)C(=O)Cc1cc2ccc(C)nc2[nH]c1=O" 98 to 100 °C

Look up and state reported melting point for "Cc1nc(-c2ccccc2)n[nH]c1=O" 75 to 76 °C

Look up and state reported melting point for "Nc1ccccc1Oc1ccccc1Cl" 44 to 45 °C

Look up and state reported melting point for "Cc1cc(-c2c(-c3ccc(S(C)(=O)=O)cc3)cnn(-c3cccc(Cl)c3)c2=O)ccc1F" 228 to 230 °C

Look up and state reported melting point for "CN1CCCc2cc(OC(=O)Nc3ccc(Cl)c(C(F)(F)F)c3)ccc21" 152 °C

Look up and state reported melting point for "Cc1cccc(NC(=O)c2ccccc2)c1Cl" 125 to 126 °C

Look up and state reported melting point for "O=C1c2ccccc2C(=O)c2c1cccc2N1CCC(C2CCNCC2)CC1" 155 to 160 °C

Look up and state reported melting point for "O=C(CC1CC1)N[C@H]1CC[C@H](CCN2CCN(c3nccc4c3OCC4)CC2)CC1" 198 °C

Look up and state reported melting point for "COC(=O)Cn1c(=O)c2ccccc2n(CCCCCl)c1=O" 119 to 120 °C

Look up and state reported melting point for "CCCCCCCNC(=O)Nc1ccc(N(C)C)cc1C(=O)NC(C)(C)C1CCN(C(c2ccccc2)c2ccccc2)CC1" 190 °C

###

Record form. Attribute: melting point. Fill in for each entry.

Look up and state reported melting point for "O=c1[nH]c(-c2ccccn2)nc(C(F)(F)F)c1I" 186 to 187 °C

Look up and state reported melting point for "O=c1[nH]c2ccc(N3CCOCC3)cc2c(=O)o1" 235 °C

Look up and state reported melting point for "Cc1sc(N2C(=O)c3ccccc3C2=O)c(C(=O)c2ccc(Cl)cc2)c1CN1CCN(c2ccc(F)cc2)CC1" 110 to 112 °C

Look up and state reported melting point for "C[C@@H](O)CN1CC(c2cccc(C(F)(F)F)c2)C1" 81 to 82 °C

Look up and state reported melting point for "CSc1nccc(C(=NO)C(=O)c2cccc(Br)c2)n1" 156 to 158 °C

Look up and state reported melting point for CCC1CCCCn2c1nc(-c1ccncn1)cc2=O (racemic) 128 to 130 °C

###

Record form. Attribute: melting point. Fill in for each entry.

Look up and state reported melting point for CCOC(=O)CNC(=O)C(CCl)NC(=O)OC(C)(C)C (stereo not drawn) 71.5 to 72 °C

Look up and state reported melting point for "CCn1c(=O)c2[nH]c(/C=C/c3cccc(F)c3)nc2n(CC)c1=O" > 270 °C

Look up and state reported melting point for "CCc1c(C(=O)c2cc(C)cc(C)c2)n(C/C=C/COC(C)=O)c(=O)[nH]c1=O" 152 to 153 °C

###

Readout Label: melting point

Look up and state reported melting point for "CCc1cc(Cl)ccc1NC(C)=O" 117 to 122 °C

Look up and state reported melting point for COc1ccc(C2(CCO)C=CC=CN2)cc1OC1CCCC1 (centres undefined) 94 to 96 °C

Look up and state reported melting point for "CCOC(=O)c1ncn(Cc2ccc(Cl)c(Cl)c2)c1C(=O)OCC" 105 to 107 °C

Look up and state reported melting point for CC(=O)N(O)C(CS(=O)(=O)c1ccc(-c2cccc(CNC(=O)c3nc4ccccc4c(=O)[nH]3)c2)cc1)C(C)C (centres undefined) 167 to 169 °C

Look up and state reported melting point for "COC(=O)Cc1cc2ccc(OC)cc2[nH]c1=O" 195 to 196 °C

Look up and state reported melting point for COC(c1ccccc1)n1cnc2c(-c3cccs3)nc(Cl)nc21 (centres undefined) 183 to 185 °C

Look up and state reported melting point for COc1ccc(-c2cnc(N3Cc4c([nH]c5ccccc5c4=O)C3C3Cc4ccccc4O3)nc2)cc1 (centres undefined) 301 to 302 °C

Look up and state reported melting point for CCOC(=O)/C(=N\O[C@@H]1CCCC[C@@H]1C)c1csc(N)n1 (relative stereo) 123 to 126 °C

Look up and state reported melting point for "NC(=O)c1nnc2n1-c1sc(Cl)cc1C(c1ccccc1Cl)=NC2" 248 to 251 °C

###

Readout Label: melting point

Look up and state reported melting point for "COc1ccc(-c2nnc3c4ccccc4c(CCl)nn23)cc1" 203 to 206 °C

Look up and state reported melting point for "Cc1c(C#N)sc2nc(-c3ccccc3)nc(N3CCN(C)CC3)c12" 223 to 225 °C

Look up and state reported melting point for "CCC1=C(c2cccc(F)c2)C(=O)N(c2ccc(Cl)c(C(F)(F)F)c2)C1" 126 to 129 °C

Look up and state reported melting point for O=C(c1ccc(C(F)(F)F)cc1S(=O)c1ccc(Cl)cc1)c1cnoc1C1CC1 (stereo not given) 151 °C

Look up and state reported melting point for "O=C(C[C@@H](O)C(F)(F)F)N[C@H]1CC[C@H](CCN2CCN(c3nccc4c3CCO4)CC2)CC1" 207 °C

Look up and state reported melting point for O=C1NC(=O)C(Cc2cccs2)N1 (stereo not given) 188 to 190 °C

Look up and state reported melting point for CCCCCCCCC=CCCCCCCCCOCC(CN(C)C)OCCCCCCCCC=CCCCCCCCC (stereo not given) 35 to 38 °C

Look up and state reported melting point for "CCOC(=O)c1cc2cc(Cl)c(Cl)cc2[nH]1" 215 to 218 °C

Look up and state reported melting point for "CCOP(=O)(COCCOn1cnc2c(N)ncnc21)OCC" 74 to 76 °C

Look up and state reported melting point for "O=C(Nc1ccc(-n2nc(C(F)(F)F)cc2C(F)(F)F)cc1)c1ccccc1C(=O)c1ccccc1" 204 to 205 °C

Look up and state reported melting point for "CC(C)n1cnc2c(NCc3ccccc3)nc(NCCCO)nc21" 98 to 101 °C

Look up and state reported melting point for "CCOc1nc(O)cc(CCl)n1" 159 to 161 °C

Look up and state reported melting point for "O=C1c2nccc(Br)c2C(=O)c2c(-c3ccccc3NC(=O)C(F)(F)F)ccnc21" 145 °C

Look up and state reported melting point for "CCCN(CCSc1nc(-c2ccccc2)c(-c2ccccc2)[nH]1)C(=O)Nc1ccc(F)cc1F" 189 to 190 °C

Look up and state reported melting point for CC12CCC(OC(=O)c3ccc(Cl)cc3)CC1=CCC1C2CCC2(C)C(=NO)CCC12 (stereo not given) 167 to 170 °C

Look up and state reported melting point for "CC(=O)N(c1nc2nc(C)cc(C)n2n1)S(=O)(=O)c1c(Cl)cccc1Cl" 219 to 222 °C

Look up and state reported melting point for "Nc1cc(Cl)nc(Cl)c1N" 186 to 188 °C

Look up and state reported melting point for "CCn1c(=O)c2c(nc(/C=C/c3cccc(OC)c3OC(C)=O)n2C)n(CC)c1=O" 202 to 203 °C

Look up and state reported melting point for "OCc1ncccc1Cl" 42 to 44 °C

Look up and state reported melting point for "Cc1cc(C(=CC(=O)c2ccc(Cl)cc2)C(F)(F)F)ccc1NC(=O)OC(C)(C)C" 72 to 74 °C
